The values you see were collected from patent US9206432B2.

tested on: lacZ under control of the tetA promoter (PtetA) in E. coli KM3; assay type: cell-based; conditions: Table 4; sulfometuron 20 ppm; 48 hrs at 30° C.
Test readout: relative β-galactosidase activity, inducer Sm
Give bare numbers.

Illustrative cases are given below, each with its answer.
| Molecule | Result value |
| --- | --- |
| L1-22: SU-responsive TetR(B) variant, library L1 hit, SEQ ID NO: 7 (protein, Sulfornylurea responsive repressor L1-22) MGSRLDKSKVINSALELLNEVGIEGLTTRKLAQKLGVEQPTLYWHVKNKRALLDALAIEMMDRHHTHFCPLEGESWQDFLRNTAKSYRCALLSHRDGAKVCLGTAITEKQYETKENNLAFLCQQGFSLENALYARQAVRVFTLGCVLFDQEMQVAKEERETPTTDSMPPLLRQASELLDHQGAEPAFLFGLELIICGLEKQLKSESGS | 17.2 |
| L1-20: SU-responsive TetR(B) variant, library L1 hit, SEQ ID NO: 6 (protein, Sulfonylurea responsive repressor L1-20) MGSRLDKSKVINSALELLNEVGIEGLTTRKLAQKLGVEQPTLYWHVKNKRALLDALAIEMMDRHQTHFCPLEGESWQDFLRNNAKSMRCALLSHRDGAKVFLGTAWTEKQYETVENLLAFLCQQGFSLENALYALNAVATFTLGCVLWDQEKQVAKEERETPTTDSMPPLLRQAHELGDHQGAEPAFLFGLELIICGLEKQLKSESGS | 6.0 |
| L1-31: SU-responsive TetR(B) variant, library L1 hit (protein, Sulfonylurea responsive repressor L1-31) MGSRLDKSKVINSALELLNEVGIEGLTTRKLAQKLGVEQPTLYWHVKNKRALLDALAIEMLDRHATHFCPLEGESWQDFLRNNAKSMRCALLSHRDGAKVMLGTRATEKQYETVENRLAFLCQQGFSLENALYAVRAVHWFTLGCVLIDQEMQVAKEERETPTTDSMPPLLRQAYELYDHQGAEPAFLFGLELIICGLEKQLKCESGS | 0.9 |

Now look at this one.
// field: relative β-galactosidase activity, inducer Sm; key: L1-29: SU-responsive TetR(B) variant, library L1 hit, SEQ ID NO: 10 (protein, Sulfonylurea responsive repressor L1-29) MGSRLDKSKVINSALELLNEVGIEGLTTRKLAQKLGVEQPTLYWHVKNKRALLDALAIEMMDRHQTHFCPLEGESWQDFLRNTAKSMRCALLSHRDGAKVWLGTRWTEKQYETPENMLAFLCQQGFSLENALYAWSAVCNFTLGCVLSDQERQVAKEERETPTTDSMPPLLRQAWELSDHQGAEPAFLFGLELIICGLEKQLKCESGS ; value = 2.7
